# Test system: Plasmodium falciparum
# EXPERIMENT_SUMMARY: Antimalarial activity against Plasmodium falciparum K1
# Format: functional
# STUDY_CONDITIONS: Plasmodium falciparum, K1; read-out: ED50 (the source's name)
Listed compounds paired with reported EC50
Report the figure along with its unit, number first.

Example compounds with recorded EC50:
>  <COMPOUND>
COCCCN(C1Cc2cc(C#N)ccc2N(Cc2cncn2C)C1)S(=O)(=O)c1cn(C)cn1 (stereo not given)

>  <SYSTEM_NAME>
Plasmodium falciparum

>  <EC50>
50 nM

$$$$
>  <COMPOUND>
Cn1cncc1CN1CC(N(CC2CCN(C(=O)c3ccc(Cl)cc3)CC2)S(=O)(=O)c2ccccn2)Cc2cc(C#N)ccc21 (stereo not given)

>  <SYSTEM_NAME>
Plasmodium falciparum

>  <EC50>
1700 nM

$$$$

Exercise: Can you look up the measured EC50 of Cn1cnc(S(=O)(=O)N(CCc2ccccc2)C2Cc3cc(C#N)ccc3N(Cc3cncn3C)C2)c1 (stereo not given) for me?
Solution: 10 nM

Exercise: Can you look up the measured EC50 of Cn1cnc(S(=O)(=O)N(CCn2cccc2)C2Cc3cc(C#N)ccc3N(Cc3cncn3C)C2)c1 (stereo not given) for me?
Solution: 1.8 nM

Exercise: Can you look up the measured EC50 of Cn1cnc(S(=O)(=O)N(Cc2ccc(C(F)(F)F)o2)C2Cc3cc(C#N)ccc3N(Cc3cncn3C)C2)c1 (stereo not given) for me?
Solution: 75 nM
